Target: CV S-protein construct 6 trimer TP31001F (SARS-CoV-2, UniProt P0DTC2 14-1208)
Experiment: SPR
property name: Kd (nM)

{"columns": ["binder", "result"],
 "data": [
  ["variant 6-67 (Fc fusion) VHH: EVQLVESGGGLVQPGGSLRLSCAASGSFSNYAMGWFRQAPGKEREFVAAISSSGALTSYADSVKGRFTISADNSKNTAYLQMNSLKPEDTAVYYCWIVGPGPLDGMDVWGQGTLVTVSS", 0.1],
  ["variant 6-22 (Fc fusion) VHH: EVQLVESGGGLVQPGGSLRLSCAASGRTFSEVVMGWFRQAPGKEREFVATIHSSGSTSYADSVKGRFTISADNSKNTAYLQMNSLKPEDTAVYYCVRVTSDYSMDSWGQGTLVTVSS", 1.8],
  ["variant 6-24 (Fc fusion) VHH: EVQLVESGGGLVQPGGSLRLSCAASGFTLDYYAMGWFRQAPGKEREFVAAINWSGDNTHYADSVKGRFTISADNSKNTAYLQMNSLKPEDTAVYYCARAPFYCTTTKCQDNYYYMDVWGQGTLVTVSS", 0.2],
  ["variant 6-56 (Fc fusion) VHH: EVQLVESGGGLVQPGGSLRLSCAASGNIFRSNMGWFRQAPGKEREFVAGITWNGDTTYYADSVKGRFTISADNSKNTAYLQMNSLKPEDTAVYYCARALGVTYQFDYWGQGTLVTVSS", 14.9],
  ["variant 5-49 (Fc fusion) VHH: EVQLVESGGGLVQPGGSLRLSCAASGRTSTVNGMGWFRQAPGKEREFVASISQSGAATAYADSVKGRFTISADNSKNTAYLQMNSLKPEDTAVYYCAADRTYSYSSTGYYWGQGTLVTVSS", 3.4],
  ["variant 5-29 (Fc fusion) VHH: EVQLVESGGGLVQPGGSLRLSCAASGFTFDDYPMGWFRQAPGKEREGVASVLRGGYTWYADSVKGRFTISADNSKNTAYLQMNSLKPEDTAVYYCAKDWATGLAWGQGTLVTVSS", 1],
  ["variant 6-62 (Fc fusion) VHH: EVQLVESGGGLVQPGGSLRLSCAASGSTFSGNWMGWFRQAPGKEREFVAVISWTGGSTYYADSVKGRFTISADNSKNTAYLQMNSLKPEDTAVYYCATHNSLSGFDYWGQGTLVTVSS", 198],
  ["variant 5-59 (Fc fusion) VHH: EVQLVESGGGLVQPGGSLRLSCAASGLTFSLYRMCWFRQAPGKEREEVSCISNIDGSTYYADSVKGRFTISADNSKNTAYLQMNSLKPEDTAVYYCAADLLGDSDYEPSSGFGWGQGTLVTVSS", 6.4]
]}

Every entry's value here was drawn from patent US20210355194A1.
